Peptide Concentration-induced 50% ANTS/DPX leakage at pH 4.8 (L/P) POPC Vesicle values, listed per item
# methodNotes: ANTS/DPX liposome leakage assay, POPC vesicles
# Type: biochemical
# studyConditions: 0.5 mM vesicles, pH 4.8
endpointName: Peptide Concentration-induced 50% ANTS/DPX leakage at pH 4.8 (L/P) POPC Vesicle

>  <primarySequence>
GLLDLLHLLLKAAG [DHK]

>  <unitAbbrev>
L/P

>  <observedResult>
47

$$$$
>  <primarySequence>
GLLKLLHLLLEAAG [KHE]

>  <unitAbbrev>
L/P

>  <observedResult>
183

$$$$
>  <primarySequence>
GLLKLLHLLLHAAG [KHH]

>  <unitAbbrev>
L/P

>  <observedResult>
227

$$$$
>  <primarySequence>
GLLHLLELLLEAAG [HEE]

>  <unitAbbrev>
L/P

>  <observedResult>
100

$$$$
>  <primarySequence>
GLLDLLHLLLHAAG [DHH]

>  <unitAbbrev>
L/P

>  <observedResult>
106

$$$$
>  <primarySequence>
GLLDLLKLLLKAAG [DKK]

>  <unitAbbrev>
L/P

>  <observedResult>
47

$$$$
>  <primarySequence>
GLLELLKLLLEAAG [EKE]

>  <unitAbbrev>
L/P

>  <observedResult>
75

$$$$
>  <primarySequence>
GLLDLLKLLLHAAG [DKH]

>  <unitAbbrev>
L/P

>  <observedResult>
41

$$$$
>  <primarySequence>
GLLDLLELLLHAAG [DEH]

>  <unitAbbrev>
L/P

>  <observedResult>
63

$$$$
>  <primarySequence>
GLLELLKLLLHAAG [EKH]

>  <unitAbbrev>
L/P

>  <observedResult>
55

$$$$
>  <primarySequence>
GLLELLHLLLHAAG [EHH]

>  <unitAbbrev>
L/P

>  <observedResult>
386

$$$$
>  <primarySequence>
GLLHLLKLLLHAAG [HKH]

>  <unitAbbrev>
L/P

>  <observedResult>
193

$$$$
>  <primarySequence>
GLLHLLHLLLEAAG [HHE]

>  <unitAbbrev>
L/P

>  <observedResult>
143

$$$$
>  <primarySequence>
GLLHLLELLLHAAG [HEH]

>  <unitAbbrev>
L/P

>  <observedResult>
173

$$$$

---

# Tested on: U2OS (human bone osteosarcoma)
# methodNotes: MTT cytotoxicity assay, U2OS
# Assay type: cell-based
# studyConditions: Homo sapiens, U2OS, 72 hr
endpointName: IC50 (nM)

>  <molecule>
COc1cccc2c1C(=O)c1c(O)c3c(c(O)c1C2=O)C[C@@](O)(C(=O)CO)C[C@@H]3O[C@H]1C[C@H](N)[C@H](O)[C@H](C)O1 [Doxorubicin, reference compound]

>  <unitAbbrev>
nM

>  <observedResult>
15

$$$$

---

# methodNotes: Tryptophan fluorescent binding assay, POPC vesicles
# studyConditions: 50 μM peptide, PBS pH 7.4
So basically every entry gets a class from its Lipid Concentration-induced 50% Peptide Binding (L/P) POPC Vesicle, ranges being I: < 0.8 L/P; II: ≥ 0.8 L/P and < 1 L/P; III: ≥ 1 L/P

>  <primarySequence>
GLLELLHLLLHAAG [EHH]

>  <class>
II

$$$$
>  <primarySequence>
GLLELLKLLLEAAG [EKE]

>  <class>
III

$$$$
>  <primarySequence>
GLLHLLELLLHAAG [HEH]

>  <class>
II

$$$$
>  <primarySequence>
GLLHLLKLLLEAAG [HKE]

>  <class>
I

$$$$
>  <primarySequence>
GLLDLLHLLLHAAG [DHH]

>  <class>
I

$$$$
>  <primarySequence>
GLLDLLKLLLKAAG [DKK]

>  <class>
III

$$$$
>  <primarySequence>
GLLKLLKLLLEAAG [KKE]

>  <class>
I

$$$$
>  <primarySequence>
GLLDLLELLLHAAG [DEH]

>  <class>
I

$$$$
>  <primarySequence>
GLLDLLKLLLHAAG [DKH]

>  <class>
III

$$$$
>  <primarySequence>
GLLDLLKLLLEAAG [DKE]

>  <class>
I

$$$$
>  <primarySequence>
GLLHLLHLLLKAAG [HHK]

>  <class>
I

$$$$
>  <primarySequence>
GLLKLLKLLLKAAG [KKK]

>  <class>
III

$$$$
>  <primarySequence>
GLLKLLHLLLEAAG [KHE]

>  <class>
II

$$$$
>  <primarySequence>
GLLHLLELLLEAAG [HEE]

>  <class>
I

$$$$

Where these numbers come from: patent US20230372433A1
